In this section, each of the compounds is paired with its reported half-life.
measured on: dehydropeptidase from human kidneys (Homo sapiens)
Construct: dehydropeptidase from human kidneys; from tissue; host or cells: human kidneys
Sequence (P16444 17-411): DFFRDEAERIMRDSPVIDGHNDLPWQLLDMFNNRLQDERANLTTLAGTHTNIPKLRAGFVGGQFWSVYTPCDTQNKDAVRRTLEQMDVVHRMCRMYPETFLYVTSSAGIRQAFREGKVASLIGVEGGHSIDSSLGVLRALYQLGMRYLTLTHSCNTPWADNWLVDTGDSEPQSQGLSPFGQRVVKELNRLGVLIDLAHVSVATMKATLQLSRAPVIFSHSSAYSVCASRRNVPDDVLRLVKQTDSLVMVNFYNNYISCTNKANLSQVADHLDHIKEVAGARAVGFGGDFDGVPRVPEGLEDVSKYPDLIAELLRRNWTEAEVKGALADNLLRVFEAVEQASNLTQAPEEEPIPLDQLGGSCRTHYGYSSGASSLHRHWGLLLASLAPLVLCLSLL
method summary: Stability towards the enzyme dehydropeptidase from human kidneys
Assay type: in vitro ADME
conditions: renal dehydropeptidase; enzyme dehydropeptidase from human kidneys; read-out: t1/2 (half-life period), stability towards dehydropeptidase (converted)
Unit h implied. Number only.

>>> measured_result("C[C@@H](O)[C@H]1C(=O)N2C(C(=O)O)=C(CN)S[C@H]12 (relative stereo) [compound B, reference compound]")
2.2

Now for a further compound.
The reported value for "NCC1=C(C(=O)O)N2C(=O)[C@H](CO)[C@H]2S1" in terms of half-life is 5.5
